test: amyloid nucleation score (Sup35N fusion, yeast selection) (log enrichment); library NNK2; higher = more nucleation; inactive = no reads after selection;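 further: zero at mode of non-aggregating sequences after 7 days selection at 30°C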
Measurement name: amyloid nucleation score

               substance  recorded_result
 0  CAGMWRFMGMVFGISTLFQC            -1.44
 1         GVAGFDTSDNETG            0.543
 2  VLLTNQRMVFCMGRFAPRVG           -0.556
 3        SETYTLIRARYIMV            -1.24
 4      SNYLAPYNNSDATYCG           -0.361
 5  ECIYIMFKACGLRDRFSQVF             1.84
 6  TLVHNFGCSLGHLKFRQNMW            -0.33
 7           WHSHMYNWWEQ             1.09
 8         ETRVITGDVSDRF             2.55
 9  DCQMRDNASVNIIVRFQYVY             5.08
10  LIPHSTSHRGFKLYSRVFYP           -0.047
11             VPLCDVYWA           -0.902
12  GLSDQKGTVALRFFYFDFYS             2.73
13  SNLMISTCEQMGRCVGDDAV           -0.067
14  RRYMVMSDWLDKPWWGYFGV           -0.855
15  LELKDNMAFDRSLFLKRHGG           -0.243
16  IILFTIARDLSRVGFRFLMA           -0.545
17              VVYASRLC            0.681
18          GLWRLYWILFHF            -1.17
19              NLLWLFDV             0.19
20       MRKLSKLLTWHPRHA           -0.517
21        GYDNTAWELTGGVD           -0.311
22  PWYGSQGNTKSCYSFVMSLP             0.06
23  SVSRSYGEVRLEHTVLETCR            0.619
24  GCRHYYWMMCNLVTFMKRES             7.24
25    LFRDTSQLGNSVIVTYYM             9.03
26  EGMTMTHGAGQLMLGGTASV            0.904
27  RVVQPKFMLGVQYSAIQFNS             2.47
28               EFMGVSR             1.51
29  LCLTYYRDHGVLASMYFHVW            0.529
30              LYEMDSKC           -0.603
31  LTWICEFGRSFFSWICVMIG            0.856
32  SFINVLDQRVILRPPTRVFV            0.494
33              LSIGSQAI            0.501
34  SHTITSGWCAGWIGFSPICR            0.932
35  PCRRYRVLFWGGSLVSSMGK              3.3
36     ASWIAGYITMHTISSFP            0.056
37  TCDCIIARFDALTSISRLAL             1.02
38            VSSNSVWSIY            -1.01
39        TTSRLRWKRSHHKW              1.4
40  SPDRPPSVVVVDRSGDVMVC             1.57
41             DECAVPRSE              0.7
42   LLVRLSVCLSSEPANWDTG              4.2
43             PARLCAVVL            0.066
44  VSIIRIKYSNQAISVRNSDS             4.16
45  IKEFYISQNFVNSHLRLANM            -1.51

---

amyloid nucleation score values, listed per item
assay: amyloid nucleation score (Sup35N fusion, yeast selection) (log enrichment); library NNK2; higher = more nucleation; inactive = no reads after selection
Measurement name: amyloid nucleation score

>>> df
          sequence_code  recorded_result
0  HRYSRCIHLVKWVWCVQMIA             1.29
1  LALRRDLFRVVLSNKTTSTR             1.07
2              YYDSYPVT            0.013

---

assay: amyloid nucleation score (Sup35N fusion, yeast selection) (log enrichment); library NNK3; higher = more nucleation; inactive = no reads after selection
Measurement name: amyloid nucleation score

>>> df
           sequence_code          measurement_name  recorded_result
 0  MCMLIYCYAQSLVMKMDSHY  amyloid nucleation score         inactive
 1  KYKVDIMLRIARSTVFSDSF  amyloid nucleation score         inactive
 2  NLHTTEIKFSPLLWKISSTW  amyloid nucleation score            0.313
 3  DCLASGMISFRVTMSNRYTI  amyloid nucleation score            0.241
 4       WIKLNLTYAHWWNMV  amyloid nucleation score         inactive
 5  SVIARVVRPMLRCKVSSMSM  amyloid nucleation score         inactive
 6  NRRIMVSSFRKVFLSGYGWF  amyloid nucleation score         inactive
 7  AEFYERLPFDIPLHSYFNAW  amyloid nucleation score         inactive
 8  VDLWYIFGPSPYATCFVLLV  amyloid nucleation score         inactive
 9          KCTGYAGCCWWT  amyloid nucleation score         inactive
10  NYHRDSDVLTIFVISCPFLR  amyloid nucleation score         inactive
11  MRAGWLYFWASANGDNQWEA  amyloid nucleation score         inactive
12  MSRMMSLNMECTSGMPESQV  amyloid nucleation score         inactive
13  RVDWRNGRVRRHLRHVLRIN  amyloid nucleation score         inactive
14  CSGLSDLSVTLNCYVNCIFL  amyloid nucleation score             2.48

---

experiment: amyloid nucleation score (Sup35N fusion, yeast selection) (log enrichment); library NNK1; higher = more nucleation; inactive = no reads after selection
Please note: rule met applies when amyloid nucleation score is -0.1 or greater, and rule not met applies otherwise.

               substance  category_label
 0  GMVLEWWIFMFGVPFSSDRA    rule not met
 1        ISNLWYNCCGIRPS        rule met
 2     YYETLLNKDILDMWEYR    rule not met
 3  WISETMFSVSAMSPVTSDAF    rule not met
 4  YGNLYCQTFLVWCRNIFLLI        rule met
 5  NWDGLYVYEYSRFVVASCRN        rule met
 6  KRGNPMTHAFLWPVMSYVFR        rule met
 7  HQKACCSRLMNCGYNSAKWR    rule not met
 8            SGCLLSDGEF        rule met
 9  WLLNMENYWTVSTAGWSRWN        rule met
10              EFVVGDKR    rule not met
11       KGFVDNYVTVIVVWT        rule met
12  AFCNVADCNIRGSWLVRLRR        rule met
13  IVYRPLAFVAVSCSESGHSV        rule met
14  CLEVGFVCWNCNRLFKCLCQ        rule met
15  IGYEGYPYASYGCRLLEQDA        rule met
16  DRRFRIITHLANSLIWNKWQ        rule met
17  NRYIRELGRKTYVLRKEFRG    rule not met
18  GLVHYMLLDPLAVNLSGCND    rule not met
19  EFKWYFAISDKCYVRLKLIK        rule met
20          RGDLSYYCRSNN    rule not met
21  MVDTYRYVIISVYVMLPYYN        rule met
22  VRSWVLVLQSMCGLLSGGYG    rule not met
23  WAWYLCSPESANFHNLHRLW        rule met
24      FGVNCNYCLILVQCMC        rule met
25        DDLTVMVGPYMGGS    rule not met
26  APGWTVDTSPYSAGVCVVTP        rule met
27  LVFGILHGCFEVVSGMLRVD    rule not met
28               KDLLMKV        rule met
29  GYVDGSRGRGAPNGAMCRCF        rule met
30      MFLIGFDGTYERSSLF    rule not met
31        QLTLSNWLKTSAKA        rule met
32  SAWWIGMMWCSSSSYLEIGG    rule not met
33              RVLIRYQV        rule met
34  CYRPFSQNLPSVMLEFILAE        rule met
35     HNFLSYFQNRNDYCASN    rule not met
36  AGECRYLLMSVDGYIGLNLV        rule met
37  QKCIVLVMLLGWVFGMPVIG        rule met
38  SNLQWYRTKGGVGLVTVMWR        rule met
39  TYWEMVHWGQEASMGSIRRR        rule met
40  TFIMSQSWFMQWPRTMAAMT    rule not met
41               DSIMNGR        rule met
42             SSVRLDKNN    rule not met
43  LQAKMTIGAFFISYSSMYPG        rule met
44  FRMGFISYQTQTLTSRVFSF        rule met

Origin of the recorded values: the supplement of paper PMC12042874
